Listed here are molecules together with their documented T/C.
tested on: L1210 leukemia ip in BDF1 mice, survival T/C; experiment: NCI In Vivo Anticancer Drug Screen. Data for tumor model L1210 Leukemia (intraperitoneal) in B6D2F1 (BDF1) mice; conditions: endpoint: mean survival time; dose: 200.0 mg/kg/injection; schedule: Q01DX009 (ip); vehicle: saline; higher = longer survival
Toxic doses and inconclusive results are not listed.

{"molecule": "Cc1ccc(S(C)(=N)=O)cc1 (stereo unspecified)", "T/C": "100 % of control"}
{"molecule": "O=C(O)C1C2CC(O)C(C2)C1C(=O)O (stereo unspecified)", "T/C": "105 % of control"}
{"molecule": "CC(c1ccccc1)n1cncc1C(=O)N(C)C (stereo unspecified)", "T/C": "97 % of control"}
{"molecule": "CCCNC(C)=O", "T/C": "101 % of control"}
{"molecule": "CC#CCOCC(O)CCl (stereo unspecified)", "T/C": "91 % of control"}

Query: Returns the measured T/C for the input molecule. Input: CCOC(=O)C(C)C1(O)CCCCC1 (stereo unspecified)
Reply: 95 % of control

Query: Returns the measured T/C for the input molecule. Input: CCOC(=O)C1=C2C(C(=O)OCC)C(O)=C(C(=O)OCC)C2C(C(=O)OCC)C1=O (stereo unspecified)
Reply: 104 % of control

Query: Returns the measured T/C for the input molecule. Input: OCC1OCC(O)C(O)C1O (stereo unspecified)
Reply: 88 % of control

Query: Returns the measured T/C for the input molecule. Input: CC(CO)NC(=O)C1C=C2c3cccc4[nH]cc(c34)CC2N(C)C1 (stereo unspecified)
Reply: 96 % of control

Query: Returns the measured T/C for the input molecule. Input: Oc1ccc(CNCCNCCNCc2ccc(O)cc2)cc1
Reply: 105 % of control

Query: Returns the measured T/C for the input molecule. Input: Cc1ccc(S(=O)(=O)O)cc1
Reply: 96 % of control

---

test system: L1210 leukemia ip in BDF1 mice, survival T/C; assay: NCI In Vivo Anticancer Drug Screen. Data for tumor model L1210 Leukemia (intraperitoneal) in B6D2F1 (BDF1) mice; conditions: endpoint: mean survival time; dose: 100.0 mg/kg/injection; schedule: Q01DX001 (ip); vehicle: saline; higher = longer survival
Inconclusive results and toxic doses are left out.
Listed here are compounds together with their documented T/C.

{"compound": "COC(=O)C1C(C(=O)OC)C2C3OC(=O)C(C2C(=O)OC)C1C3C (centres undefined)", "observed_result": "103 % of control"}

In the following, a different compound is considered.
Query: Returns the measured T/C for the input compound. Input: CC1CCc2nc3ccccc3nc21 (centres undefined)
Reply: 91 % of control

---

system: L1210 leukemia ip in BDF1 mice, survival T/C; assay: NCI In Vivo Anticancer Drug Screen. Data for tumor model L1210 Leukemia (intraperitoneal) in B6D2F1 (BDF1) mice; conditions: endpoint: mean survival time; dose: 100.0 mg/kg/injection; schedule: Q01DX001 (ip); vehicle: Klucel (hydroxypropylcellulose) (HPC); higher = longer survival
Toxic doses and inconclusive results are not listed.
metric_name: T/C

Below, each entry is followed by its recorded T/C result.
{"compound": "CCOc1ccc(-n2c(O)c(N=Nc3ccc(Cl)cc3)c(=O)n(-c3ccc(OC)cc3)c2=S)cc1", "target": "L1210 leukemia ip in BDF1 mice, survival T/C", "T/C": "96 % of control"}
{"compound": "CC1(c2ccccc2)SC(C)(c2ccccc2)SC(c2ccccc2)(c2ccccc2)S1 (stereo not given)", "target": "L1210 leukemia ip in BDF1 mice, survival T/C", "T/C": "100 % of control"}
{"compound": "CN(C)Cc1c[nH]c2c1S/C(=C/c1ccccc1)C2=O", "target": "L1210 leukemia ip in BDF1 mice, survival T/C", "T/C": "105 % of control"}
{"compound": "Cc1nc(N)[nH]c(=O)c1CCCNS(=O)(=O)c1ccccc1", "target": "L1210 leukemia ip in BDF1 mice, survival T/C", "T/C": "94 % of control"}

In the following, a different compound is considered.
Query: Lookup: T/C / L1210 leukemia ip in BDF1 mice, survival T/C / CSCC(C(N)=O)c1cc(Cl)ccc1Cl (stereo not given)
Reply: 107 % of control
